Origin of values: the supplement of paper PMC9170038

- Test system: K4 kissing-loop RNA reporter;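 also: bound reporter read as fluorescence of individual clusters on recovered sequencing chips by microscopy, with normalized cluster intensities fitted with a binding model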
- Procedure Text: apparent KD of K4 kissing-loop reporter; higher = weaker reporter binding
- Condition Notes: Eterna round: R107; input ligand: theophylline 20 uM
Mark class 0 for apparent KD of K4 kissing-loop reporter values under 200 nM, and class 1 for everything at or above.

{"columns": ["Residue Sequence", "Assayed System", "Label Value"],
 "data": [
  ["UGUCAUUGGUCUGAUACCAGUUAGACCGAUAGGUCAAAACUGGAGUGAUGUUCCCAAAAUAACCCUUGGCAGCAGACCGAUGACU [TheoBS 3 #SwitchBubble #StaticStem]", "K4 kissing-loop RNA reporter", "class 1"]
]}

Determine whether this sequence has apparent KD of K4 kissing-loop reporter no lower than 200 nM: UGACUGGAUGGAAGGAGCGCUAAACUCCUAGUGAUGUUAGGGAUACGAGACAAAGUCUUGAAGCAGGUAGGUCGCCAUCUAGUCU [FiskerMod 10 - Jieux - Same State - Arginine B]
class 0

Determine whether this sequence has apparent KD of K4 kissing-loop reporter no lower than 200 nM: AAGGUCACUACUACAGUGAUGUUGUAGGAGCAGGAUAUGCAGAAAUGCAGAAGGGCUCGCUCCAAGUGACCGAAUGAAACAUUCA [Omei KL FMN A SS A v2]
class 1

Determine whether this sequence has apparent KD of K4 kissing-loop reporter no lower than 200 nM: AGAUGACAGGGAGGAUAUCCUAAUAUGGGUGAUGUUAGCGAUGUUGAAGGUGUAGUGAUGUUAUGCGGAGAAGGCCCUGUUGUUU [BDazzled - #23 - Exc. FMN B]
class 0

Determine whether this sequence has apparent KD of K4 kissing-loop reporter no lower than 200 nM: CAUGGAGUGAUGCUCCAUGAUCGGGCUUGGCAGGAUAUGGGAUUUUCCAGAAGGGUCGAUCCCAGCGAGUGAUGUUCGCUGGUCU [Exclusion FMN A GF 26]
class 0

Determine whether this sequence has apparent KD of K4 kissing-loop reporter no lower than 200 nM: UUUGUAUAGGGAAGGAGCGUGAAUGAUAAAGAAUAUAGUGAUGUUAUAUAGAAGAAAGAAUCACAGGUAGGUCGCCCGGAGGAGG [SSArgB.H]
class 1

Determine whether this sequence has apparent KD of K4 kissing-loop reporter no lower than 200 nM: UUUUUAUUCAGUGAUGUUGAAUUUAUAUCAGAGGAUAUGCAUAAAAGCAGAAGGCUGAAAUACUAUACUUUAAUAAAUUAUAUUU [JR_SSFMNA_Sub017]
class 1

Determine whether this sequence has apparent KD of K4 kissing-loop reporter no lower than 200 nM: UGUGAUGUUGUGAUGUUUAGUGUUGUUGGGCAGGAUAUUGUAGAGGCGAGAAGGGCUAGUGUGAUGUAUGAGUGAUGUUUGUAGU [kkollmullin]
class 0

Determine whether this sequence has apparent KD of K4 kissing-loop reporter no lower than 200 nM: UGGGUUGGAAGUGAUGUUUCUCUAAGUGAUACCAGACAAAAGAAAGUCCCUUGGCAGCACAAUGAUGCCAAGGAAACGGCAUGAU [#16 K4 Theophylline A Same State]
class 1

Determine whether this sequence has apparent KD of K4 kissing-loop reporter no lower than 200 nM: GAUGGUCGAGAAGGAUAUGUGACUACCAGAAGGAAAUUCAGUGAUGUUGAUUGUCGCGAGCAGGAGACAGAAGGUCUCAGACAUA [theeternabot_exclusion_KL_FMN_B_5]
class 1

Determine whether this sequence has apparent KD of K4 kissing-loop reporter no lower than 200 nM: CGGUACGUCGCAGGAUAUGGAUUCUGGAGUGAUGUUUCAGAGGCAUGCGGAAAACGCAUGCCGACUCCAGAAGGGCGACGUACCG
class 0

Determine whether this sequence has apparent KD of K4 kissing-loop reporter no lower than 200 nM: AGUAGUUGGGCGGCCGCCACUGGAACAGCUUUGCCAAAGGCAGAGCACUAGAGUGAUGUUCUAGCUAGGACCGGGUCCAACUACA [whbob_SS_Tryp_B_t17]
class 1

Determine whether this sequence has apparent KD of K4 kissing-loop reporter no lower than 200 nM: GGUAGCAUGGCGGCCGCCACUACAAGUAGUGACCCAAGUGAUGUUUGGAAGCGGGUCCUAAUUGGUAGGACCGGGCCAUGCUACC
class 1

Determine whether this sequence has apparent KD of K4 kissing-loop reporter no lower than 200 nM: UAGGUUUAAUCGGCCGCCACUAUCAGAGCGCCAGUGAUGUUGGAGUAACGAUCGUGGCGAGUUAAUAGGACCGGGAUUCAACACA [Velazaer]
class 0

Determine whether this sequence has apparent KD of K4 kissing-loop reporter no lower than 200 nM: AGUGAACGAGCGGCCGCCACUAAAUGAGUGAUGUUCGUGAGUAGUGCUGUUCUCAUGAUUGUUUUUAGGACCGGGUUCGAUGUUG [edcclmullin]
class 1

Determine whether this sequence has apparent KD of K4 kissing-loop reporter no lower than 200 nM: ACGUAGUUCUAGGAUACCAGCCAAGGUCGCCAGGACAAAAGUCCUGGCGCCAGUGAUGUUGGCCCUUGGCAGCCUAGAACUACGA [Omei KL Theo B Exc B v6]
class 0
